Reference source for all entries: paper PMC12820563

measured.target: MBP-FoxP1dN (Mus musculus, UniProt P58462 326-579)
Sequence: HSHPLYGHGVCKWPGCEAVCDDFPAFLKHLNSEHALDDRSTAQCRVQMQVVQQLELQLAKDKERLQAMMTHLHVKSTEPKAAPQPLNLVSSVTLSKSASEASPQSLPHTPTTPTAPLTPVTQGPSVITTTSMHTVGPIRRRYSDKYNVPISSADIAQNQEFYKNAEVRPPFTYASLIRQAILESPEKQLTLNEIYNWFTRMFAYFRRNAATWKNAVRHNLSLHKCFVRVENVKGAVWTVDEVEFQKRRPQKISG
experiment.description: PD-seq (MBP pull-down with sequencing); 20 mM Tris-HCl pH 7.5, 100 mM NaCl, 1.5 mM MgCl2, 0.4 uM protein, 0.1 uM dsDNA library, 30 min, room temperature, amylose pull-down; high values mean tight binding
recorded.conditions: protein: recombinant; tags: His6-MBP; chain copies: 2; dsDNA, one strand shown
Whole data set: some 16,000 sequences, median “rpm ratio (pull-down/input)” near 0.94, cut for the highest 2% near 1.7. Only a selection was taken, and the highest values are over-represented in it overall.
Listing of recorded binding signal by entry.
property: binding signal

query.sequence: GATGATTGTTCTCCCAGCTGATGAATTATTGACATCGAGTAAACAAATTTTCCTAATCTTTCTGTTCAAGCGCCATCTAC
result.value: 2 RPM ratio (pull-down/input)
//
query.sequence: GATGATTGTTCTCCCAGCTGATGAATTGTATACGTCGAGTAAACAAATTTTCCTAATCTTTCTGTTCAAGCGCCATCTAC
result.value: 1.82 RPM ratio (pull-down/input)
//
query.sequence: GATGATTGTTCTCCCAGCTGATGAATTTATTGGCTCGAGTAAACAAATTTTCCTAATCTTTCTGTTCAAGCGCCATCTAC
result.value: 1.09 RPM ratio (pull-down/input)
//
query.sequence: GATGATTGTTCTCCCAGCTGATGAATTGCGTACCTCGAGTAAACAAATTTTCCTAATCTTTCTGTTCAAGCGCCATCTAC
result.value: 1.09 RPM ratio (pull-down/input)
//
query.sequence: GATGATTGTTCTCCCAGCTGATGAATTGAGTCAATCGAGTAAACAAATTTTCCTAATCTTTCTGTTCAAGCGCCATCTAC
result.value: 1.01 RPM ratio (pull-down/input)
//
query.sequence: GATGATTGTTCTCCCAGCTGATGAATTCTGCCTGTCGAGTAAACAAATTTTCCTAATCTTTCTGTTCAAGCGCCATCTAC
result.value: 0.791 RPM ratio (pull-down/input)
//
query.sequence: GATGATTGTTCTCCCAGCTGATGAATTAACACATTCGAGTAAACAAATTTTCCTAATCTTTCTGTTCAAGCGCCATCTAC
result.value: 1.18 RPM ratio (pull-down/input)

---

measured.target: MBP-FoxP1dN (Mus musculus, UniProt P58462 326-579)
Sequence: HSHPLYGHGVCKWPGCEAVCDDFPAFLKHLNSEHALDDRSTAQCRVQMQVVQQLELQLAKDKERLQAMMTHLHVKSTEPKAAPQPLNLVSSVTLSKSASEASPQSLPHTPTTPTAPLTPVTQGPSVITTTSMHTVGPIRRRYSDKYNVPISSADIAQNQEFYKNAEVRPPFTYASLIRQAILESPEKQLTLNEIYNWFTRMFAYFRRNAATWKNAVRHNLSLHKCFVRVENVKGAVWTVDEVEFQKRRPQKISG
experiment.description: PD-seq (MBP pull-down with sequencing); 20 mM Tris-HCl pH 7.5, 100 mM NaCl, 1.5 mM MgCl2, 0.4 uM protein, 0.1 uM dsDNA library, 30 min, room temperature, amylose pull-down; high values mean tight binding
recorded.conditions: protein: recombinant; tags: His6-MBP; chain copies: 2; dsDNA, one strand shown
The full ranking holds about 16,000 sequences; the median of “rpm ratio (pull-down/input)” is about 0.94, and the highest 2% start at about 1.7. Many of the other results were omitted from the sample, so the highest values are more common in it than they were.
Listing of recorded binding signal by entry.

query.sequence: GATGATTGTTCTCCCAGCTGATGAATTTATTAAATCGAGTAAACAAATTTTCCTAATCTTTCTGTTCAAGCGCCATCTAC
measured.target: MBP-FoxP1dN (Mus musculus, UniProt P58462 326-579)
binding signal: 1.39 RPM ratio (pull-down/input)
//
query.sequence: GATGATTGTTCTCCCAGCTGATGAATTATCGTTATCGAGTAAACAAATTTTCCTAATCTTTCTGTTCAAGCGCCATCTAC
measured.target: MBP-FoxP1dN (Mus musculus, UniProt P58462 326-579)
binding signal: 1.11 RPM ratio (pull-down/input)
//
query.sequence: GATGATTGTTCTCCCAGCTGATGAATTCGCTTAATCGAGTAAACAAATTTTCCTAATCTTTCTGTTCAAGCGCCATCTAC
measured.target: MBP-FoxP1dN (Mus musculus, UniProt P58462 326-579)
binding signal: 0.936 RPM ratio (pull-down/input)
//
query.sequence: GATGATTGTTCTCCCAGCTGATGAATTGAGAGTCTCGAGTAAACAAATTTTCCTAATCTTTCTGTTCAAGCGCCATCTAC
measured.target: MBP-FoxP1dN (Mus musculus, UniProt P58462 326-579)
binding signal: 0.741 RPM ratio (pull-down/input)
//
query.sequence: GATGATTGTTCTCCCAGCTGATGAATTTTAAATTTCGAGTAAACAAATTTTCCTAATCTTTCTGTTCAAGCGCCATCTAC
measured.target: MBP-FoxP1dN (Mus musculus, UniProt P58462 326-579)
binding signal: 0.924 RPM ratio (pull-down/input)
//
query.sequence: GATGATTGTTCTCCCAGCTGATGAATTCGATTCTTCGAGTAAACAAATTTTCCTAATCTTTCTGTTCAAGCGCCATCTAC
measured.target: MBP-FoxP1dN (Mus musculus, UniProt P58462 326-579)
binding signal: 0.855 RPM ratio (pull-down/input)
//
query.sequence: GATGATTGTTCTCCCAGCTGATGAATTTGCCACCTCGAGTAAACAAATTTTCCTAATCTTTCTGTTCAAGCGCCATCTAC
measured.target: MBP-FoxP1dN (Mus musculus, UniProt P58462 326-579)
binding signal: 0.982 RPM ratio (pull-down/input)
